Target: P-450sca-2 (Streptomyces carbophilus, UniProt Q59831)
Construct: made in house; host or cells: Streptomyces carbophilus SANK 62585 (FERM BP-1145), native producer, not recombinant
Sequence (Q59831 whole entry): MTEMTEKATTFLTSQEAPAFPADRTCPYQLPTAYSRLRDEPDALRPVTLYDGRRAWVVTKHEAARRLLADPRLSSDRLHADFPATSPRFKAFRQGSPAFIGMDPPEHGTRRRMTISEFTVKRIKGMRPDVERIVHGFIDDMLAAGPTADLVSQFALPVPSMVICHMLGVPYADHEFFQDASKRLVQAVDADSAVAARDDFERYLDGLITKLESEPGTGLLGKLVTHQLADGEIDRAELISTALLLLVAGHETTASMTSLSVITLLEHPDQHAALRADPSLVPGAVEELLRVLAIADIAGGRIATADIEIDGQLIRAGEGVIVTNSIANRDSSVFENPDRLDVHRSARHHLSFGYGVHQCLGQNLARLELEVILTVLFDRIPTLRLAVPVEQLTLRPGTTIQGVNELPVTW
Test: Effect of potential inhibitors and metallic ions on rate of formation of pravastatin sodium from sodium ML-236B carboxylate (method ii)
Format: biochemical
Settings: 1 mM added compound
// values below are reported Residual activity of enzyme P-450sca-2
ASSAY_ENDPOINT: Residual activity of enzyme P-450sca-2 (%)

| SAMPLE_SMILES | ASSAYED_SYSTEM | ASSAY_ENDPOINT | OUTPUT_UNIT | DATA_VALUE |
| --- | --- | --- | --- | --- |
| [Cl][Mn][Cl] | P-450sca-2 (Streptomyces carbophilus, UniProt Q59831) | Residual activity of enzyme P-450sca-2 | % | 18.7 |
| [Cl][Cu][Cl] | P-450sca-2 (Streptomyces carbophilus, UniProt Q59831) | Residual activity of enzyme P-450sca-2 | % | 0 |
| [Ca+2].[Cl-].[Cl-] | P-450sca-2 (Streptomyces carbophilus, UniProt Q59831) | Residual activity of enzyme P-450sca-2 | % | 100.0 |
| [Cl-].[Cl-].[Co+2] | P-450sca-2 (Streptomyces carbophilus, UniProt Q59831) | Residual activity of enzyme P-450sca-2 | % | 67.5 |

###

Test system: P-450sca-3
Assay: Effect of potential inhibitors and metallic ions on rate of formation of pravastatin sodium from sodium ML-236B carboxylate (method ii)
Format: biochemical, Streptomyces carbophilus
Conditions: 1 mM added compound
// values below are reported Residual activity of enzyme P-450sca-3

| SAMPLE_SMILES | Residual activity of enzyme P-450sca-3, % |
| --- | --- |
| [Cl][Mn][Cl] | 17.5 |
| [Cl-].[Cl-].[Co+2] | 60.1 |
| [Cl][Cu][Cl] | 0 |
| [Ca+2].[Cl-].[Cl-] | 100.0 |

###

Tested on: cytochrome P-450sca-1
Test: Effect of potential inhibitors and metallic ions on rate of formation of pravastatin sodium from sodium ML-236B carboxylate (method ii)
Type: biochemical, Streptomyces carbophilus
Conditions: 1 mM added compound; 5 min
Protocol: The following cocktail of components is employed: The components of the Table are mixed, the solution is shaken at 30°C for 5 minutes, and then 10 »l of 6 N NaOH is added and the reaction stopped. The amount of pravastatin sodium formed by the enzyme system is determined with HPLC. The effects of potential inhibitors against cytochrome P-450sca-1 P-450sca-2, P-450sca-3 and the effects of metallic ions on the action of the cytochrome P-450 can be assessed quantitatively using the method (ii).

| COMPOUND | Residual activity of enzyme P-450sca-1 |
| --- | --- |
| [Ca+2].[Cl-].[Cl-] [CaCl₂] | 100.0% |
| [Cl][Mn][Cl] [MnCl₂] | 20.0% |
| [Cl][Cu][Cl] [CuCl₂] | 0% |
| [Cl-].[Cl-].[Co+2] [CoCl₂] | 65.0% |
